System: LXRb:RXRa (NR concentration 270 nM, RXRa partner concentration 90 nM)
ASSAY: PBM binding z-score (relative to random genomic background probes); higher = stronger binding; sequences stand for … in GC…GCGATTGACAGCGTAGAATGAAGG
Would you mind telling me the reported PBM binding z-score of each entry?

Enquiry: Value lookup for PBM binding z-score; key = TCTAGCAGGCCGGAGGGTCACTCAAGAGGTACGG
Return: 0.729

Enquiry: Value lookup for PBM binding z-score; key = TCTGATAGGTCAACGATGGTCAGCTAATCTGCTA
Return: 3.31

Enquiry: Value lookup for PBM binding z-score; key = TTACCAAGGTGAGCTGAGGTCGTTTATCCAACTC
Return: 0.978

Enquiry: Value lookup for PBM binding z-score; key = AGATGTAGGTTATCGGGTCATTCAGTTTGCGCAT
Return: 3.01

Enquiry: Value lookup for PBM binding z-score; key = CTCGAAAGGTCGTGCTCAGGTGAGTGTACCAAAC
Return: 3.22

Enquiry: Value lookup for PBM binding z-score; key = TTGCCTAGGTCATGGGCCAGTATACCACGCGAAC
Return: 2.49
